system: L. donovani HU3 strain in mouse peritoneal macrophages; assay: Assay for proliferation of Leishmania parasites in infected mouse peritoneal macrophages (SybrGreen staining, high-content imaging, 5 days); type: cell-based, Leishmania donovani; details: Leishmania donovani, Peritoneal macrophage, L. donovani in mouse peritoneal macrophages, inhibition of proliferation; read-out: L. donovani Macrophage EC50
pEC50: −log10 of the molar value.
valueKind: pEC50

• Cc1nc(C)c(C(=O)Nc2ccc(F)c(-c3cn4cc(C5=CCN(C)CC5)cnc4n3)c2)o1 [Compound 361] = 6.00
• CNc1ccc(-c2cnc3nc(-c4cc(NC(=O)OCCOC)ccc4Cl)cn3c2)cc1 [Compound 36] = 5.89
• Cc1nc(C)c(C(=O)Nc2ccc(F)c(-c3cn4cc(-c5c(C)noc5C)cnc4n3)c2)o1 [Compound 366] = 6.47
• CC(C)OC(=O)Nc1cnc2nc(-c3cc(NC(=O)C4CC4)ccc3Cl)cn2c1 [Compound 245] = 5.69
• CCN(CC)C(=O)Nc1cccc(-c2cn3cc(NC(=O)OC(C)C)cnc3n2)c1 [Compound 16] = 4.85
• COC(=O)Nc1cnc2nc(-c3cc(NC(=O)c4oc(C)nc4C)ccc3F)cn2c1 [Compound 310] = 6.25
• Cc1nc(C)c(C(=O)Nc2ccc(F)c(-c3cn4cc(C5=CCOCC5)cnc4n3)c2)o1 [Compound 334] = 7.07
• Cc1ncc(C(=O)Nc2cnc3nc(-c4cc(NC(=O)c5oc(C)nc5C)ccc4F)cn3c2)[nH]1 [Compound 190] = 5.07
• CC(C)OC(=O)Nc1cnc2nc(-c3cc(NC(=O)N4CCC4)ccc3F)cn2c1 [Compound 226] = 6.42
• CC(C)OC(=O)Nc1cnc2nc(-c3cc(NC(=O)C4CC(=O)C4)ccc3F)cn2c1 [Compound 101] = 5.60
• O=C(Nc1cnc2nc(-c3cc(NC(=O)N4CCCC4)ccc3F)cn2c1)c1ccc(F)cn1 [Compound 124] = 5.25
• Cc1ncc(C(=O)Nc2ccc(F)c(-c3cn4cc(-c5ccccc5)cnc4n3)c2)o1 [Compound 329] = 7.24
• C[Si](C)(C)CCOCn1cnc(-c2cnc3nc(-c4cc(NC(=O)N5CCCC5)ccc4Cl)cn3c2)c1 [Compound 344] = 6.80
• Cc1nc(C)c(C(=O)Nc2ccc(F)c(-c3cn4cc(C(F)(F)F)cnc4n3)c2)o1 [Compound 200] = 6.20
• CC(C)OC(=O)Nc1cnc2nc(-c3cc(NC(=O)c4ccc(Cl)s4)ccc3F)cn2c1 [Compound 66] = 4.79
• COCC(=O)Nc1cnc2nc(-c3cc(NC(=O)N4CCCC4)ccc3F)cn2c1 [Compound 139] = 5.17
• CC(C)OC(=O)Nc1cnc2nc(-c3cc(NC(=O)N4CC(F)(F)C(F)(F)C4)ccc3Cl)cn2c1 [Compound 266] = 5.47
• CC(C)OC(=O)Nc1cnc2nc(-c3cc([N+](=O)[O-])ccc3F)cn2c1 [Compound 19] = 4.33

###

Measured pEC50, listed per entry.
system: Leishmania donovani axenic amastigote parasites; assay: Leishmania donovani axenic amastigote proliferation assay (Cell TiterGlo luminescence, 2 day incubation); format: cell-based; details: Leishmania donovani, L. donovani axenic amastigotes; read-out: L. donovani amastigotes EC50
pEC50: −log10 of the molar value.
valueKind: pEC50

- CC(C)c1cnc2nc(-c3cc(N)ccc3F)cn2c1 [Compound 584]: < 4.60
- Cc1nc(C)c(C(=O)Nc2ccc(F)c(-c3cn4cc(NCc5ncc[nH]5)cnc4n3)c2)o1 [Compound 479]: < 4.64
- CC(C)(C)OC(=O)Nc1cnc2nc(-c3cccc(NC(=O)N4CCCC4)c3F)cn2c1 [Compound 579]: < 4.60
